target: NV 3CLpro (Norovirus, UniProt Q83883); experiment: biochemical; type: biochemical; conditions: read-out: IC50 (μM) ± SD
Sequence (Q83883 1101-1281): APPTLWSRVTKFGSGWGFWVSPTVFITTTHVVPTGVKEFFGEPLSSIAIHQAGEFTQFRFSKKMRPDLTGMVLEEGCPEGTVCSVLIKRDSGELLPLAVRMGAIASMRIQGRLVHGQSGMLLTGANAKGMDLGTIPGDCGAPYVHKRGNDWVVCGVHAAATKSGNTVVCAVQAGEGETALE
The reader will find reported IC50 values listed item by item below.
The reply should contain only the number, in µM.

Answered cases to consult:
compound="CC(C)C[C@H](NC(=O)OCCCc1ccccc1)C(=O)N[C@@H](C[C@@H]1CCNC1=O)C(O)S(=O)(=O)O (stereo partly drawn) [Compound 6m]" targetsystem="NV 3CLpro (Norovirus, UniProt Q83883)" readoutkind=IC50 testresult=0.6
compound="CC(C)(OC(=O)N[C@@H](CC1CCCCC1)C(=O)N[C@H](C=O)C[C@@H]1CCNC1=O)c1cccc(Cl)c1 [Compound 5a (Scheme 2)]" targetsystem="NV 3CLpro (Norovirus, UniProt Q83883)" readoutkind=IC50 testresult=2.9
compound="CC(C)C[C@H](NC(=O)OCC(C)(C)c1ccccc1)C(=O)N[C@H](C=O)C[C@@H]1CCNC1=O [Compound 5f (Scheme 2)]" targetsystem="NV 3CLpro (Norovirus, UniProt Q83883)" readoutkind=IC50 testresult=0.45
compound="CC(C)(COC(=O)N[C@@H](CC1CCCCC1)C(=O)N[C@H](C=O)C[C@@H]1CCNC1=O)c1cccc(Cl)c1 [Compound 5d (Scheme 2)]" targetsystem="NV 3CLpro (Norovirus, UniProt Q83883)" readoutkind=IC50 testresult=0.23

query: I would be grateful if you could share the reported IC50 for CC(C)C[C@H](NC(=O)OC1(c2cccc(Cl)c2)CC1)C(=O)N[C@@H](C[C@@H]1CCNC1=O)C(O)S(=O)(=O)O (stereo partly drawn) [Compound 6r] .
result: 0.25

query: Please look up its IC50: CC(C)C[C@H](NC(=O)OC(C)(C)Cc1cccc(Cl)c1)C(=O)N[C@H](C=O)C[C@@H]1CCNC1=O [Compound 5i (Scheme 2)]
result: 1.2

query: I am curious: what IC50 value has been reported for CC(C)C[C@H](NC(=O)OCC(C)(C)c1cccc(Cl)c1)C(=O)N[C@H](C=O)C[C@@H]1CCNC1=O [Compound 5g (Scheme 2)] ?
result: 0.27

query: Dear colleague, I am looking for the recorded IC50 of the following compound: CC(C)C[C@H](NC(=O)OC/C=C/c1cccc(Cl)c1)C(=O)N[C@@H](C[C@@H]1CCNC1=O)C(O)S(=O)(=O)O (stereo partly drawn) [Compound 6t]
result: 0.11

====

molecular target: NV 3CLpro (Norovirus, UniProt Q83883); assay: biochemical; type: biochemical; details: read-out: IC50 (μM) ± SD
Labelling: IC50 reported below 0.3 µM becomes criterion met; at or above becomes criterion not met.

molecule="CC(C)(Cc1cccc(Cl)c1)OC(=O)N[C@@H](CC1CCCCC1)C(=O)N[C@H](C=O)C[C@@H]1CCNC1=O [Compound 5h (Scheme 2)]" group="criterion not met"
molecule=CC(C)C[C@H](NC(=O)OCCCc1cccc(Cl)c1)C(=O)N[C@H](C=O)C[C@@H]1CCNC1=O group="criterion met"
molecule="O=C(N[C@@H](CC1CCCCC1)C(=O)N[C@@H](C[C@@H]1CCNC1=O)C(O)S(=O)(=O)O)OC/C=C/c1cccc(Cl)c1 (stereo partly shown)" group="criterion met"

query: hey, is IC50 for "CC(C)C[C@H](NC(=O)OCCCc1ccccc1)C(=O)N[C@H](C=O)C[C@@H]1CCNC1=O" lower than 0.3 µM or not?
result: criterion not met

query: # check: IC50 < 0.3 µM for CC(C)C[C@H](NC(=O)OCC(C)(C)Cc1cccc(Cl)c1)C(=O)N[C@@H](C[C@@H]1CCNC1=O)C(O)S(=O)(=O)O (stereo partly shown)
result: criterion met

query: Item O=C(N[C@@H](CC1CCCCC1)C(=O)N[C@@H](C[C@@H]1CCNC1=O)C(O)S(=O)(=O)O)OC1(c2cccc(Cl)c2)CC1 (stereo partly shown) : IC50 beneath 0.3 µM, strictly?
result: criterion met

query: Does this molecule meet the criterion IC50 < 0.3 µM? CC(C)C[C@H](NC(=O)OCCCc1cccc(Cl)c1)C(=O)N[C@@H](C[C@@H]1CCNC1=O)C(O)S(=O)(=O)O (stereo partly shown)
result: criterion met
